# assayed_target: PI3Kα (p110α/p85α) (Homo sapiens)
# Construct: GST (N)
# Sequence (P42336 whole entry): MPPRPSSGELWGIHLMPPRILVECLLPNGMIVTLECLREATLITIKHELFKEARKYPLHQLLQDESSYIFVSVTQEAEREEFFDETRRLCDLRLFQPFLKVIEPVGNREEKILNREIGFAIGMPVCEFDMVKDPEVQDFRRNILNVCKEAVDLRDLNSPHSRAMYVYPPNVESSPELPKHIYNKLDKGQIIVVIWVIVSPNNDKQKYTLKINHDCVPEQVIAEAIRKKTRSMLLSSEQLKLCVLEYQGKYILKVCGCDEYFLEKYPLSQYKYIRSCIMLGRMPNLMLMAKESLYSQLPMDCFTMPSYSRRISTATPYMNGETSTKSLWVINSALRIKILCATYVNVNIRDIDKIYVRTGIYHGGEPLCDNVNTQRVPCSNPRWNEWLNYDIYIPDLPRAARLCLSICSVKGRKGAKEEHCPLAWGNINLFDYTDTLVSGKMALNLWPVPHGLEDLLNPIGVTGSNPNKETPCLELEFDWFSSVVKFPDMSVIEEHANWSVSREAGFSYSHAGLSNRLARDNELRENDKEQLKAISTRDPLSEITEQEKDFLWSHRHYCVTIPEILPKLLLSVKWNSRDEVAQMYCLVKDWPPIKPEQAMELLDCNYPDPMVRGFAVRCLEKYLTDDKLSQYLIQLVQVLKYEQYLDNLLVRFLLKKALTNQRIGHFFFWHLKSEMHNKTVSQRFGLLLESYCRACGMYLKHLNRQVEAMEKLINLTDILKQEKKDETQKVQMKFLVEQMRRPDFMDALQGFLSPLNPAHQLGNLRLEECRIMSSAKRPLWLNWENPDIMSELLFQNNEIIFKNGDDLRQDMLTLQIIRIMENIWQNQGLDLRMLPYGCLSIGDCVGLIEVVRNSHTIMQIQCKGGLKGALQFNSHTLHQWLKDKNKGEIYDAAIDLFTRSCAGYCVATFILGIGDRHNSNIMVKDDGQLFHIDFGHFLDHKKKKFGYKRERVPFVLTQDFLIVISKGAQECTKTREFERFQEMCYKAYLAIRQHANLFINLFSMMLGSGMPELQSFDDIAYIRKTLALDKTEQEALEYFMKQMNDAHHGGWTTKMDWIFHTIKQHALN
# Sequence (P27986 whole entry partner): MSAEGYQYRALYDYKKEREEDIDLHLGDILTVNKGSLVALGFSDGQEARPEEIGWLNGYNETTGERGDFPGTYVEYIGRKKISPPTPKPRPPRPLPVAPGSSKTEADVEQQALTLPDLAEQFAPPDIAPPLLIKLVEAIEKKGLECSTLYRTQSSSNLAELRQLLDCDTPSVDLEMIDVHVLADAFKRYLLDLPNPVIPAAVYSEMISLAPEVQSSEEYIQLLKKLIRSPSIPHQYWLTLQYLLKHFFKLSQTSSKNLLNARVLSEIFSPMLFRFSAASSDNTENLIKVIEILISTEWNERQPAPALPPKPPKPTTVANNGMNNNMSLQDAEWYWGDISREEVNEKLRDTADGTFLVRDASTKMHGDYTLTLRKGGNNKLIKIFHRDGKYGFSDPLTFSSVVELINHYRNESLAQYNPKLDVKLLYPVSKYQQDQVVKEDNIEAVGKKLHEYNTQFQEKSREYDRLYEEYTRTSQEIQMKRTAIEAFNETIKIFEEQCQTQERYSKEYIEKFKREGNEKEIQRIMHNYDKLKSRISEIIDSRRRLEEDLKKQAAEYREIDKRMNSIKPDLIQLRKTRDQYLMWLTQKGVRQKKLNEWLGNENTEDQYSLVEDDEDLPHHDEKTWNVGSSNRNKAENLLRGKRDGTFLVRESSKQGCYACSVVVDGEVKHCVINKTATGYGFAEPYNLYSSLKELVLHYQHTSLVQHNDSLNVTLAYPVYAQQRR
# assay_explanation: PI3Kα ADP-Glo assay
# measurement_setup: 20 μM PIP2, 10 μM ATP, 30 minutes
Parameter: IC50. Scope: all listed entries.
outcome_measure: IC50

1) CN(CCCCCC(=O)NO)Cc1cc2nc(-c3cccc4[nH]ncc34)nc(N3CCOCC3)c2s1 [Compound 103] | 100 to 1000 nM
2) Nc1ncc(-c2nc(N3CCOCC3)c3sc(NS(=O)(=O)c4ccc(/C=C/C(=O)NO)cc4)cc3n2)cn1 [Compound 217] | < 100 nM
3) CN(Cc1cc2nc(-c3ccc(N)c(F)c3)nc(N3CCOCC3)c2s1)c1ncc(C(=O)NO)cn1 [Compound 276] | < 100 nM
4) CNc1ccc(-c2nc(N3CCOCC3)c3sc(CN(C)c4ncc(C(=O)NO)cn4)cc3n2)cn1 [Compound 111] | < 100 nM
5) CC(C)C(=O)Nc1ccc(-c2nc(N3CCOCC3)c3sc(CN(C)c4ncc(C(=O)NO)cn4)cc3n2)cc1 [Compound 286] | 100 to 1000 nM
6) COc1ccc(Nc2nc(-c3cccc4[nH]ncc34)nc3cc(CN(C)c4ncc(C(=O)NO)cn4)sc23)cc1 [Compound 165] | > 10000 nM
7) C#CCCN(Cc1cc2nc(-c3cccc4[nH]ncc34)nc(N3CCOCC3)c2s1)c1ncc(C(=O)NO)cn1 [Compound 98] | < 100 nM
8) COc1ccc(-c2nc(N3CCOCC3)c3sc(NCCCCC(=O)NO)cc3n2)cn1 [Compound 230] | < 100 nM
9) CN(CCCCC(=O)NO)Cc1cc2nc(-c3cccc4[nH]ncc34)nc(N3CCOCC3)c2s1 [Compound 102] | 100 to 1000 nM
10) O=C(/C=C/c1cccc(S(=O)(=O)Nc2cc3nc(-c4cccc5[nH]ncc45)nc(N4CCOCC4)c3s2)c1)NO [Compound 216] | < 100 nM
11) Nc1ccc(-c2nc(N3CCOCC3)c3sc(CNc4ncc(C(=O)NO)cn4)cc3n2)cc1 [Compound 211] | 100 to 1000 nM
12) COc1ncc(-c2nc(N3CCOCC3)c3sc(CN(C)c4ncc(C(=O)NO)cn4)cc3n2)cn1 [Compound 261] | < 100 nM
13) Nc1ccc(-c2nc(N3CCOCC3)c3sc(S(=O)(=O)Nc4ncc(C(=O)NO)cn4)cc3n2)cc1 [Compound 271] | < 100 nM
14) CN(Cc1cc2nc(-c3cnn(C)c3)nc(N3CCOCC3)c2s1)c1ncc(C(=O)NO)cn1 [Compound 246] | 100 to 1000 nM
15) O=C(NO)c1cnc(NCc2cc3cc(-c4cccc5[nH]ncc45)nc(N4CCOCC4)c3s2)nc1 [Compound 73] | 100 to 1000 nM
16) O=C(NO)c1cnc(N2CCN(S(=O)(=O)c3cc4nc(-c5cccc6[nH]ncc56)nc(N5CCOCC5)c4s3)CC2)nc1 [Compound 51] | < 100 nM
17) CS(=O)(=O)N1CCN(Cc2cc3nc(-c4cccc5c4cnn5CCCCCCC(=O)NO)nc(N4CCOCC4)c3s2)CC1 [Compound 5] | > 10000 nM
18) CC(C)(Nc1ncc(C(=O)NO)cn1)c1cc2nc(-c3cccc4[nH]ncc34)nc(N3CCOCC3)c2s1 [Compound 71] | 100 to 1000 nM
19) CN(Cc1cc2nc(-c3cccc(SCCO)c3)nc(N3CCOCC3)c2s1)c1ncc(C(=O)NO)cn1 [Compound 290] | 100 to 1000 nM
20) CCCCN(Cc1cc2nc(-c3cccc4[nH]ncc34)nc(N3CCOCC3)c2s1)c1ncc(C(=O)NO)cn1 [Compound 85] | 100 to 1000 nM
